system: SN12C; assay: Cytotoxicity against human SN12C cells assessed as growth inhibition after 48 hrs by sulforhodamine B assay; format: functional
MEASURED PROPERTY: TGI (µM)
Express your answer in µM, writing the number without its unit.

Task: Please give the measured TGI for this compound: COc1ccc(C(=O)/C=C/c2cc(-c3ccc4c(c3)OCO4)n[nH]2)cc1OC
Output: 13.6

Task: Please give the measured TGI for this compound: COc1cc(C(=O)/C=C/c2cc(-c3ccc4c(c3)OCO4)n[nH]2)cc(OC)c1OC
Output: 6.28

Task: Please give the measured TGI for this compound: COc1cc2c(cc1OC)C(=O)/C(=C/c1cc(-c3ccc4c(c3)OCO4)n[nH]1)C2
Output: 2.99

Task: Please give the measured TGI for this compound: COc1cc(-c2cc(/C=C/C(=O)c3ccc(N)cc3)[nH]n2)cc(OC)c1OC
Output: 4.52

Task: Please give the measured TGI for this compound: COc1cc(C(=O)/C=C/c2cc(-c3cc(OC)c(OC)c(OC)c3)n[nH]2)cc(OC)c1OC
Output: 2.97
